pre-emergence activity against TRZAS: recorded values
- Tested on: TRZAS
- ASSAY_DETAILS: D. Pre-emergence effects on crop plants (Tables D)
- Type: in vivo, Triticum aestivum
- STUDY_CONDITIONS: crop plant; application rate 80 g/ha; Table D2b
Number in %, nothing else.

Cn1cc(C(=O)N2CCCC2Cc2ccc(F)cc2F)c(COc2ccccc2)n1 (racemic) [Example I-008]	10
COCc1c(C(=O)N2CCCC2(C)Cc2ccccc2F)cnn1C (single isomer, unassigned) [Example I-066]	0
Cn1cc(C(=O)N2CCCC2Cc2ccccc2F)c(COCC2COC2)n1 (racemic) [Example I-091]	0
Cn1cc(C(=O)N2CCCC2Cc2ccccc2F)c(COc2ccccc2)n1 (racemic) [Example I-006]	0

Now consider the entry below.
Q: Can you share its pre-emergence activity against TRZAS? I mean this compound: COCc1nn2c(c1C(=O)N1CCCC1Cc1ccccc1F)CCC2 (racemic) [Example I-022]
Result: 0

----------
- Test system: ECHCG
- ASSAY_DETAILS: A. Herbicidal pre-emergence action on harmful plants (Tables A)
- Format: in vivo, Echinochloa crus-galli
- STUDY_CONDITIONS: application rate 80 g/ha; visual grading after ca. 3 weeks vs untreated controls; 100% = plants have died off, 0% = as control plants
MEASURED_ATTRIBUTE: pre-emergence activity against ECHCG (%)
Number in %, nothing else.

Study these solved cases before continuing.
COCc1nn(C)cc1C(=O)N1CCCC1Cc1ccccc1Br (racemic)	90
CCOCc1nn(C)cc1C(=O)N1CCC1Cc1ccccc1Cl (racemic)	90
COCc1nn(C)cc1C(=O)N1CCCC1Cc1cccc(F)c1F (racemic) [Example I-077]	90

Now consider the entry below.
Q: Can you share its pre-emergence activity against ECHCG? I mean this compound: COCc1nn(C)cc1C(=O)N1CCCC1Cc1c(F)cccc1Cl (single isomer, unassigned)
Result: 90

----------
- System: POAAN
- ASSAY_DETAILS: B. Herbicidal post-emergence action on harmful plants (Tables B)
- Assay type: in vivo, Poa annua
- STUDY_CONDITIONS: application rate 320 g/ha; Table B7b
MEASURED_ATTRIBUTE: post-emergence activity against POAAN (%)
Number in %, nothing else.

Study these solved cases before continuing.
COCc1c(C(=O)N2CCCC2Cc2c(F)cccc2F)cnn1C (single isomer, unassigned)	90
COC(=O)c1nn(C)cc1C(=O)N1CCCC1Cc1ccc(F)cc1F (racemic)	100
COCc1c(C(=O)N2CCCC2Cc2ccccc2F)cnn1C (single isomer, unassigned)	100
COCc1c(C(=O)N2CCCC2Cc2ccccc2Cl)cnn1C (racemic)	90
COCc1nn(C)cc1C(=O)N1CCCC1Cc1ccccc1F (single isomer, unassigned)	90
COCc1nn(C)cc1C(=O)N1CCCC1Cc1cccc(F)c1F (racemic)	90
COCc1nn(C)cc1C(=O)N1CCCC1Cc1ccc(F)cc1F (single isomer, unassigned)	90
COCc1nn(C)cc1C(=O)N1CCCC1Cc1c(F)cccc1F (racemic) [Example I-081]	90

Q: Hi! What's the reported post-emergence activity against POAAN for COCc1nn(C)cc1C(=O)N1CCCC1Cc1ncccc1F (racemic) on POAAN?
Result: 90

Q: Hi! What's the reported post-emergence activity against POAAN for COCc1nn(C)cc1C(=O)N1CCCC1Cc1ccccc1Br (racemic) on POAAN?
Result: 90

Q: Hi! What's the reported post-emergence activity against POAAN for COCc1nn(C)cc1C(=O)N1CCCC1Cc1ccccc1C (single isomer, unassigned) on POAAN?
Result: 100

Q: Hi! What's the reported post-emergence activity against POAAN for COCc1nn(C)cc1C(=O)N1CCCC1Cc1cc(F)ccc1F (single isomer, unassigned) on POAAN?
Result: 90

Q: Hi! What's the reported post-emergence activity against POAAN for COCc1nn(C)cc1C(=O)N1CCCC1Cc1c(F)cccc1F (single isomer, unassigned) [Example I-082] on POAAN?
Result: 90
